target: abc isoform of human TMEM16A channel expressed in CHO cells (Homo sapiens, UniProt Q5XXA6, DEL476-501); construct: expressed in transfected cells; host or cells: CHO cells, doxycycline-inducible expression under Blasticidin/Zeocin selection; assay: Automated patch clamping (QPatch) assay to measure TMEM16A activity in whole-cell; format: cell-based; conditions: CHO cells expressing human TMEM16A (abc), whole-cell automated patch clamp, Hill fit; read-out: TMEM16A QPATCH assay EC50 V3 EC50
Sequence (Q5XXA6 with tags, fused parts or gaps isoform Q5XXA6-5 DEL539-564): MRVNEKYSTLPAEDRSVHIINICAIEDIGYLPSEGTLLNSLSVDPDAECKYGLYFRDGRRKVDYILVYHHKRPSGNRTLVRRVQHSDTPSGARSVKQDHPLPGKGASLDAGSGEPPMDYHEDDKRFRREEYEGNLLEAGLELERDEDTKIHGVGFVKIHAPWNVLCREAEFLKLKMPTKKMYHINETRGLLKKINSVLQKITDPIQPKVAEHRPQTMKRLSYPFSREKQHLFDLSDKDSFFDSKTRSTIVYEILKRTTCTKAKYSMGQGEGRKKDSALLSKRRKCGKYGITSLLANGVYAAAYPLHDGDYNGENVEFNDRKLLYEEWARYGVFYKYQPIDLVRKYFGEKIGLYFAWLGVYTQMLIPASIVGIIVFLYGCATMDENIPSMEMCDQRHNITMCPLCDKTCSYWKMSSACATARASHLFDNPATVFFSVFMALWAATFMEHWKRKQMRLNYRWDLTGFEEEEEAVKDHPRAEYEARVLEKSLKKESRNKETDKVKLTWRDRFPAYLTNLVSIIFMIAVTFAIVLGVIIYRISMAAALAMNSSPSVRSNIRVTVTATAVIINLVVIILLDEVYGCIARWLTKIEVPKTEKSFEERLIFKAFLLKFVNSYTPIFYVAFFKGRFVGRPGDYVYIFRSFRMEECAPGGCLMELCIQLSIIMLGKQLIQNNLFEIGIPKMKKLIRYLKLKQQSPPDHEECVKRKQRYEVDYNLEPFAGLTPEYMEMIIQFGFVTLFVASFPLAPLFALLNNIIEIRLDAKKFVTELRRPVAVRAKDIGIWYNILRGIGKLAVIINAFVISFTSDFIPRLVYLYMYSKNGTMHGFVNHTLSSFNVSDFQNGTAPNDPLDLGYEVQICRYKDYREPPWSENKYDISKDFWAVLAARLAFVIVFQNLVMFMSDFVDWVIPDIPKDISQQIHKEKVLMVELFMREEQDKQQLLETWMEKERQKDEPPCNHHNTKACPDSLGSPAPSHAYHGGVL
Attribute Measured: pEC50
Scale explanation: pEC50 corresponds to minus log10 of a concentration expressed in moles per litre.

Reference set, count: 6
Compound	pEC50
CCC(CC)NC(=O)c1cnc(-c2cccc(-c3cc(C(=O)N[C@@H](C)C4CCCCC4)n[nH]3)c2)o1	6.77
CCC(CC)NC(=O)c1cnc(-c2cccc(-c3cc(C(=O)N[C@H](CC)[C@H]4CC[C@@H](C)O4)n[nH]3)c2)o1	6.14
CCC(CC)NC(=O)c1cnc(-c2cccc(-c3cc(C(=O)N[C@H](C)C4CCCCC4)n[nH]3)c2)o1	6.64
CCOC(=O)[C@@H](NC(=O)c1cnc(-c2cccc(-c3cc(C(=O)NC(C)C(F)(F)F)[nH]n3)c2)o1)C(C)C (some centres unmarked)	7.70
C[C@H](NC(=O)c1nnc(-c2cccc(-c3ncc(C(=O)NC4(C5CC5)CC4)o3)c2)[nH]1)C1CC1	6.41
CCC(CC)NC(=O)c1cnc(-c2cccc(-c3cc(C(=O)NC(C4CC4)C4CCCO4)n[nH]3)c2)o1 (single isomer, unassigned) [Example 3.4 (ii)]	6.59

response.value for `CCOC(=O)[C@@H](NC(=O)c1cnc(-c2cccc(-c3cc(C(=O)N[C@@H](C)C4CC4)n[nH]3)c2)o1)C(C)C` (field: pEC50) = 7.40

response.value for `CCOC(=O)[C@@H](NC(=O)c1cc(-c2cccc(-c3ncc(C(=O)N[C@H](C(=O)OCC)C(C)C)o3)c2)[nH]n1)C(C)C` (field: pEC50) = 7.49

response.value for `CCOC(=O)[C@@H](NC(=O)c1cc(-c2cccc(-c3ncc(C(=O)NC(CC)CC)o3)c2)nn1CCO)C(C)C` (field: pEC50) = 7.40

response.value for `CCOC(=O)[C@H](CC1CCCCC1)NC(=O)c1cc(-c2cccc(-c3ncc(C(=O)NC(CC)CC)o3)c2)[nH]n1` (field: pEC50) = 6.77
